test: inhibitors of CD40-induced NF-kB signaling, primary screen, BL2 cells, luciferase reporter, single point (AID 1053188); details: CD40L-induced, 4 h; at 10 µM unless noted;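 further: 0% = neutral control wells and 100% = IKK inhibitor VII at 50 µM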
In all, about 83,000 compounds went through this assay and about 780 (0.94%) were called active.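 How the source made its calls: active means mean inhibition of at least 50% with a set share of replicates also reaching that level; inconclusive means no clear call, values can overlap the other calls; inactive means the rest.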 For the sample, actives were picked, then their nearest neighbours and some compounds at random.
Classes used: active, inactive

| Compound | Category Label |
| --- | --- |
| CCOC(=O)c1ccc[n+](CC(=O)Nc2ccccc2OC(F)F)c1 | inactive |
| Cc1noc(C)c1S(=O)(=O)Nc1ccc2c(c1)C(=O)N([C@@H](C)CO)C[C@@H](C)[C@H](CN(C)C(=O)Nc1cccc3ccccc13)OCCCC[C@H](C)O2 | inactive |
| O=C(Cn1cnc([N+](=O)[O-])n1)NCCc1ccccc1 | inactive |
| C[C@@H]1C(=O)N[C@H](c2ccc3c(c2)OCO3)CC=CC[C@H](C)Oc2ccccc2C(=O)N1C (mixture of isomers) | inactive |
| CC(C)(C)NC(=O)NC(=O)COC(=O)Cc1ccc(Cl)cc1Cl | inactive |
| COc1ccc(NS(=O)(=O)c2ccc(N3CCOCC3)c(NC(=O)/C=C/C(=O)O)c2)cc1 | inactive |
| COc1ccc2c(c1)c(=Cc1ccc(N(C)C)cc1)c1cc(-c3ccccc3)[n+](C)n12 | active |
| Cc1ccc2cccc([N+](=O)[O-])c2n1 | inactive |
| O=C(C[C@H]1C=C[C@@H](NC(=O)c2cnccn2)[C@H](CO)O1)NCc1ccccc1F | inactive |
| CCCC#Cc1ccc([C@@H]2[C@@H](C#N)N(C(=O)C3CCCC3)[C@@H]2CO)cc1 | inactive |

###

assay: inhibitors of CD40-induced NF-kB signaling, primary screen, BL2 cells, luciferase reporter, single point (AID 1053188); details: CD40L-induced, 4 h, stronger effect = higher value; at 10 µM unless noted;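 further: 0% = neutral control wells and 100% = IKK inhibitor VII at 50 µM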
The campaign covered roughly 83,000 compounds. About 780 (0.94%) were called active. What follows is part of a selection rich in actives, with near analogues and random picks from the rest.
Experimental Readout: inhibition (%)

| Molecule | Scale Unit | Numeric Readout |
| --- | --- | --- |
| CS(=O)(=O)N1[C@@H](C#N)[C@H](c2ccc(C#CC3CCCCC3)cc2)[C@@H]1CO | % | -1.7 |
| CCCNC(=O)c1ccc(Cl)c(Cl)c1 | % | 0.458 |
| CCOC(=O)C1(C)NC(c2ccco2)C2C(=O)N(c3ccccc3)C(=O)C21 (stereo not given) | % | -6.84 |
| O=C(COC(=O)Cc1ccc([N+](=O)[O-])cc1)NC1CCCCCC1 | % | 2.86 |
| CCC(C)N(C(=O)COC(=O)c1nc(Cl)ccc1Cl)C1CCS(=O)(=O)C1 (stereo not given) | % | 3.49 |
